Experiment: Free energy of hydration predicted by General Amber Force Field (GAFF), from literature
Settings: Table 5; error of GAFF hydration free energy vs experiment
MEASUREMENT_KIND: GAFF error (kcal/mol)
Express it in kcal/mol; write the number only.

Past entries and their recorded results:
- COMPOUND: "C [Methane]"
  MEASUREMENT_KIND: "GAFF error"
  READOUT_VALUE: 0.24
- COMPOUND: "Cc1ccccc1 [Toluene]"
  MEASUREMENT_KIND: "GAFF error"
  READOUT_VALUE: 0.18

Now let's try a different one.
# GAFF error (compound: CO [Methanol] ) is 0.74

====

Entries and their logD Arrow PIMD Error values follow.
Test: CHEX/H2O partition coefficient (log D) predicted with the QM-parameterized force field model (ARROW FF)

- MOLECULE: "CO [Methanol]"
  logD Arrow PIMD Error: 0.43
- MOLECULE: "Cc1ccc(O)cc1 [p-cresol]"
  logD Arrow PIMD Error: 0.11

// logD Arrow PIMD Error value for CCSC [EthylMethylSulfide] : 0.29

Notebook: CCC [Propane] , logD Arrow PIMD Error read as 0.04

For this molecule ( CC(C)C [Isobutane] ), measured logD Arrow PIMD Error is 0.06

logD Arrow PIMD Error reported for this molecule CCCCN [butanamine] : 0.16

For record Cc1c[nH]c2ccccc12 [3-methyl-indole] the listed logD Arrow PIMD Error is 0.76

Looking up C [Methane] , I found its logD Arrow PIMD Error recorded as 0.09

Looking up CCC(=O)O [propionicacid] , I found its logD Arrow PIMD Error recorded as 0.05

====

Test: Free energy of hydration predicted with the QM-parameterized force field model (ARROW FF), classical MD and PIMD simulation in a water box
Conditions: Table 3; absolute error of MD hydration free energy vs experiment
Output: class label from water Arrow MD Error. Mapping: bucket A (below 0.6 kcal/mol), bucket B (0.6 kcal/mol to below 0.9 kcal/mol), bucket C (0.9 kcal/mol or more)

- COMPOUND: "CC(=O)O"
  GROUP_LABEL: "bucket A"
- COMPOUND: "CCCCCCCCO"
  GROUP_LABEL: "bucket C"

Next up:
Textbook exercise: identify the category of the compound given here, CC(C)C , according to its measured value.
bucket C

====

Test: Free energy of hydration predicted with the QM-parameterized force field model (ARROW FF), classical MD and PIMD simulation in a water box
Settings: Table 5; error of Arrow PIMD8 hydration free energy vs experiment
MEASUREMENT_KIND: Arrow error (kcal/mol)
Respond with the bare value in kcal/mol.

Previously resolved entries follow.
- MOLECULE: "CC(=O)O"
  Arrow error (kcal/mol): 0.34
- MOLECULE: "CC"
  Arrow error (kcal/mol): 0.12
- MOLECULE: "c1c[nH]cn1"
  Arrow error (kcal/mol): 0.29
- MOLECULE: "CS"
  Arrow error (kcal/mol): 0.43
- MOLECULE: "Oc1ccccc1"
  Arrow error (kcal/mol): 0.18
- MOLECULE: "c1ccccc1"
  Arrow error (kcal/mol): 0.17
- MOLECULE: "O"
  Arrow error (kcal/mol): 0.17
- MOLECULE: "CCCCCCCC"
  Arrow error (kcal/mol): 0.04
- MOLECULE: "CCCCCCCCO"
  Arrow error (kcal/mol): 0.22
- MOLECULE: "CCC"
  Arrow error (kcal/mol): 0.00

Memo: COC , reported Arrow error: 0.37

Quick note, Arrow error for CCCC landed at 0.04

Record summary for CNC(C)=O [N-Methylacetamide] : reported Arrow error = 0.49

Entry CC(N)=O [Acetamide] — recorded Arrow error = 0.06

====

Assay: Free energy of solvation in cyclohexane predicted with the QM-parameterized force field model (ARROW FF), MD and PIMD
Conditions: Table 4; error of PIMD4 cyclohexane solvation free energy vs experiment
Text: Cyclohexane (CHEX) is nonpolar and equilibrates relatively quickly. Particle-Mesh Ewald (PME) algorithm was used to compute the electrostatic interactions. A 32×32×32 grid mesh and 5th power spline interpolation order can be used to compute the inverse PME sum. 9 Å cutoffs were used to compute the direct PME sum as well as the exchange and dispersion interactions. Bulk corrections were applied to account for distance cut-off of dispersion interactions. […]
Note to self: CHEX Arrow PIMD4 Error under 0.09 kcal/mol means TRUE, ties and anything higher get FALSE.

Examples with answers:
- COMPOUND: "CO"
  GROUP_LABEL: "FALSE"
- COMPOUND: "CCC(=O)O"
  GROUP_LABEL: "FALSE"
- COMPOUND: "CC(C)C"
  GROUP_LABEL: "FALSE"
- COMPOUND: "CCSC [EthylMethylSulfide]"
  GROUP_LABEL: "FALSE"
- COMPOUND: "CC(=O)O"
  GROUP_LABEL: "TRUE"
- COMPOUND: "CCC"
  GROUP_LABEL: "TRUE"
- COMPOUND: "CCC(N)=O [propionamide]"
  GROUP_LABEL: "FALSE"
- COMPOUND: "Cc1c[nH]c2ccccc12"
  GROUP_LABEL: "TRUE"
- COMPOUND: "C"
  GROUP_LABEL: "TRUE"
- COMPOUND: "CCO"
  GROUP_LABEL: "FALSE"

Input CC(N)=O [Acetamide] ; condition: CHEX Arrow PIMD4 Error strictly below 0.09 kcal/mol. Does it hold?
FALSE

Lab note: confirm whether the reported CHEX Arrow PIMD4 Error for this compound is below 0.09 kcal/mol, equality not counting. compound: CS
FALSE

Please determine if CCCC is below 0.09 kcal/mol in terms of CHEX Arrow PIMD4 Error.
FALSE

Confirm or reject: CHEX Arrow PIMD4 Error of Cc1ccccc1 lies strictly below 0.09 kcal/mol
FALSE

Is 0.09 kcal/mol strictly greater than the compound's reported CHEX Arrow PIMD4 Error? compound: CCCCN
TRUE

====

Experiment: Free energy of hydration predicted with the QM-parameterized force field model (ARROW FF), classical MD and PIMD simulation in a water box
Conditions: Table 3; absolute error of PIMD8 hydration free energy vs experiment
Respond with Met for water Arrow PIMD8 Error values of 0.2 kcal/mol and above, Not met for values below.

Sample answers from the record:
- COMPOUND: "CCCC(C)=O"
  GROUP_LABEL: "Not met"
- COMPOUND: "CCC=O"
  GROUP_LABEL: "Met"
- COMPOUND: "CCC(O)CC"
  GROUP_LABEL: "Not met"
- COMPOUND: "c1ccc2cc3cc4ccccc4cc3cc2c1"
  GROUP_LABEL: "Met"
- COMPOUND: "c1cc2ccc3cccc4ccc(c1)c2c34"
  GROUP_LABEL: "Not met"
- COMPOUND: "CCC(=O)CC"
  GROUP_LABEL: "Met"
- COMPOUND: "CCC(N)=O [propionamide]"
  GROUP_LABEL: "Not met"
- COMPOUND: "c1ccc2ccccc2c1"
  GROUP_LABEL: "Met"
- COMPOUND: "CCCOC"
  GROUP_LABEL: "Not met"
- COMPOUND: "C=CCC"
  GROUP_LABEL: "Met"

Kindly consider the entry below.
Is reported water Arrow PIMD8 Error greater than or equal to 0.2 kcal/mol here: CC(C)O
Not met

====

Experiment: Free energy of hydration by Free Energy Machine Learning Model (FML)
Settings: absolute error vs Exp (hydration)
So basically: is FML error under 0.2 kcal/mol? Then true. Not under? Then false.

Take a look at these entries with their results.
- COMPOUND: "CCCCOC(C)=O [ButylAcetate]"
  GROUP_LABEL: "false"
- COMPOUND: "C"
  GROUP_LABEL: "false"
- COMPOUND: "c1ccncc1"
  GROUP_LABEL: "false"

Could you please tell me whether FML error recorded for Cc1ccccc1O is less than 0.2 kcal/mol?
true

Threshold test, FML error < 0.2 kcal/mol: CCCC(C)O (stereo not drawn)
false

Determine whether this compound shows FML error lower than 0.2 kcal/mol (ties excluded): CC
false

Answer whether the compound CNC(C)=O [N-Methylacetamide] has FML error strictly less than 0.2 kcal/mol
false

Record CC(C)C : is its FML error strictly below 0.2 kcal/mol?
true

Lab log: compare recorded FML error with 0.2 kcal/mol; is it strictly lower for CCC(C)O (stereo not drawn) ?
false

Quick check: FML error of CCCO under 0.2 kcal/mol?
true

Record CCC(O)CC : is its FML error strictly below 0.2 kcal/mol?
false

# strict comparison: is reported FML error < 0.2 kcal/mol? input = CCO
true

Threshold test, FML error < 0.2 kcal/mol: C1CC1
false

Does the reported FML error of the following compound sit strictly below 0.2 kcal/mol? CCOC(C)=O [EthylAcetate]
true

In the record for CC(C)=O , is FML error less than 0.2 kcal/mol?
false

Is the reported FML error for c1cc[nH]c1 strictly below 0.2 kcal/mol?
false

Is 0.2 kcal/mol strictly greater than the compound's reported FML error? compound: CCCOC(C)=O [PropylAcetate]
false
